metric.name: IC50 (nM)
API: value field is a number in nM; no unit string.

Query IC50 on Heat shock protein HSP 90-beta (Homo sapiens, UniProt P08238) for "CC(C)c1cc(C(=O)N2Cc3ccccc3C2)c(O)cc1O"
Sequence (P08238 whole entry): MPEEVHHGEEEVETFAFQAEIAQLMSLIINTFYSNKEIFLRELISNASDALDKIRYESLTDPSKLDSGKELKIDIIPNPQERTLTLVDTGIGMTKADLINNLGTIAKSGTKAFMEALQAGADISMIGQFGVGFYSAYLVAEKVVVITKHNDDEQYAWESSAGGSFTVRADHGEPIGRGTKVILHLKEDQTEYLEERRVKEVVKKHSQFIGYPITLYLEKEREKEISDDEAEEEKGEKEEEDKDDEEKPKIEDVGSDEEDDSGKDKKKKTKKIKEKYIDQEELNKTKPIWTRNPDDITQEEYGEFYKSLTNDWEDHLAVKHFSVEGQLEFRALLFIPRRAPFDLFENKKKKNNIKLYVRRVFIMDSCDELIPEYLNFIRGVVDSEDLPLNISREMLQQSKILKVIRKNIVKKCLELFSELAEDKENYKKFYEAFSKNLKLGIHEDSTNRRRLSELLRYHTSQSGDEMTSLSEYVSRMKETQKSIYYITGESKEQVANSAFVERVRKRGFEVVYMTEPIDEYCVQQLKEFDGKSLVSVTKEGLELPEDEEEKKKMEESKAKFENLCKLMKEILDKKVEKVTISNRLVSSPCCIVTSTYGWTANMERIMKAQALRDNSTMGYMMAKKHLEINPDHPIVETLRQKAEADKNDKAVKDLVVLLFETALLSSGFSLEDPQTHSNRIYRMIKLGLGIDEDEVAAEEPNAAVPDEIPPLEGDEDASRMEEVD
4

###

What IC50 was measured for each of the following?
Test system: MDA-MB-231
Assay: Antiproliferative activity against human MDA-MB-231 cells assessed as inhibition of cell proliferation incubated for 72 hrs by MTT assay
Format: functional, cell-based
Conditions: MDA-MB-231, 72 h
API: value field is a number in µM; no unit string.

Could you tell me which IC50 is on file for CC(C)c1cc(C(=O)N2Cc3ccc(CN4CCN(C(=O)CNc5cccc6c5CN(C5CCC(=O)NC5=O)C6=O)CC4)cc3C2)c(O)cc1O (centres undefined) ?
7.69

Could you tell me which IC50 is on file for CC(C)c1cc(C(=O)N2Cc3ccc(CN4CCN(CCCCCCCC(=O)Nc5cccc6c5C(=O)N(C5CCC(=O)NC5=O)C6=O)CC4)cc3C2)c(O)cc1O (centres undefined) ?
62.8

Could you tell me which IC50 is on file for CC(C)c1cc(C(=O)N2Cc3ccc(CN4CCN(CCCCCC(=O)Nc5cccc6c5C(=O)N(C5CCC(=O)NC5=O)C6=O)CC4)cc3C2)c(O)cc1O (centres undefined) ?
5.11

Could you tell me which IC50 is on file for CC(C)c1cc(C(=O)N2Cc3ccc(CN4CCN(CCCCCCC(=O)Nc5cccc6c5C(=O)N(C5CCC(=O)NC5=O)C6=O)CC4)cc3C2)ccc1O (centres undefined) ?
51.5

Could you tell me which IC50 is on file for CC(C)c1cc(C(=O)N2Cc3ccc(CN4CCN(CCCC(=O)Nc5cccc6c5C(=O)N(C5CCC(=O)NC5=O)C6=O)CC4)cc3C2)c(O)cc1O (centres undefined) ?
2.04

Could you tell me which IC50 is on file for CC(C)c1cc(C(=O)N2Cc3ccc(CN4CCN(C(=O)CCCCNc5cccc6c5CN(C5CCC(=O)NC5=O)C6=O)CC4)cc3C2)c(O)cc1O (centres undefined) ?
4.3

Could you tell me which IC50 is on file for CC(C)c1cc(C(=O)N2Cc3ccc(CN4CCN(CCCCC(=O)Nc5cccc6c5C(=O)N(C5CCC(=O)NC5=O)C6=O)CC4)cc3C2)ccc1O (centres undefined) ?
94.2

Could you tell me which IC50 is on file for CC(C)c1cc(C(=O)N2Cc3ccc(CN4CCN(CCC(=O)Nc5cccc6c5C(=O)N(C5CCC(=O)NC5=O)C6=O)CC4)cc3C2)c(O)cc1O (centres undefined) ?
6.8

Could you tell me which IC50 is on file for CC(C)c1cc(C(=O)N2Cc3ccc(CN4CCN(CCCCCC(=O)Nc5cccc6c5C(=O)N(C5CCC(=O)NC5=O)C6=O)CC4)cc3C2)ccc1O (centres undefined) ?
71.8

Could you tell me which IC50 is on file for CC(C)c1cc(C(=O)N2Cc3ccc(CN4CCN(CCCC(=O)Nc5cccc6c5C(=O)N(C5CCC(=O)NC5=O)C6=O)CC4)cc3C2)ccc1O (centres undefined) ?
72.8

Could you tell me which IC50 is on file for CC(C)c1cc(C(=O)N2Cc3ccc(CN4CCN(C(=O)CCCCCNc5cccc6c5CN(C5CCC(=O)NC5=O)C6=O)CC4)cc3C2)c(O)cc1O (centres undefined) ?
4.79

Could you tell me which IC50 is on file for CC(C)c1cc(C(=O)N2Cc3ccc(CN4CCN(C(=O)CCCNc5cccc6c5CN(C5CCC(=O)NC5=O)C6=O)CC4)cc3C2)c(O)cc1O (centres undefined) ?
7.87

Could you tell me which IC50 is on file for CC(C)c1cc(C(=O)N2Cc3ccc(CN4CCN(CCCCC(=O)Nc5cccc6c5C(=O)N(C5CCC(=O)NC5=O)C6=O)CC4)cc3C2)c(O)cc1O (centres undefined) ?
18.8

Could you tell me which IC50 is on file for CC(C)c1cc(C(=O)N2Cc3ccc(CN4CCN(C)CC4)cc3C2)c(O)cc1O [ONALESPIB] ?
2.6

Could you tell me which IC50 is on file for CC(C)c1cc(C(=O)N2Cc3ccc(CN4CCN(CCCCCCC(=O)Nc5cccc6c5C(=O)N(C5CCC(=O)NC5=O)C6=O)CC4)cc3C2)c(O)cc1O (centres undefined) ?
12.1
